Hey, just so you know, these numbers are from paper PMC6407913.

- measurement-target: 5-HT6 (Homo sapiens)
- Construct: NIMH PDSP
- Sequence (P50406 whole entry, species assumed): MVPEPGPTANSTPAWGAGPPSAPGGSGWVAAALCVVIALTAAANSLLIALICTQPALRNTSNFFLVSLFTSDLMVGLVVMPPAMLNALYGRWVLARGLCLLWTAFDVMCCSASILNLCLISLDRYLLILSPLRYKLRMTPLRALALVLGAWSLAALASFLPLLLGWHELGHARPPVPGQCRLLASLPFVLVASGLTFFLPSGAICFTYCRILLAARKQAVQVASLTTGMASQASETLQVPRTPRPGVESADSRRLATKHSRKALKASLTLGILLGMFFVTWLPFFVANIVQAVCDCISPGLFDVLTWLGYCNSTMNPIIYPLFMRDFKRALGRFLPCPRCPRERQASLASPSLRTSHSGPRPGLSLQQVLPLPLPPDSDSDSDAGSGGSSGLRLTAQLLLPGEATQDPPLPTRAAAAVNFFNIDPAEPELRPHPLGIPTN
- test-description: NIMH PDSP radioligand binding, membranes
- conditions-used: read-out: Ki
pKi: −log10 of the molar value.
measurement-name: pKi

1) c1ccc2c(c1)N=C(N1CCNCC1)c1ccccc1N2 [C21] :: 6.57

====

- measurement-target: D4 (Homo sapiens, UniProt P21917)
- Sequence (P21917 whole entry): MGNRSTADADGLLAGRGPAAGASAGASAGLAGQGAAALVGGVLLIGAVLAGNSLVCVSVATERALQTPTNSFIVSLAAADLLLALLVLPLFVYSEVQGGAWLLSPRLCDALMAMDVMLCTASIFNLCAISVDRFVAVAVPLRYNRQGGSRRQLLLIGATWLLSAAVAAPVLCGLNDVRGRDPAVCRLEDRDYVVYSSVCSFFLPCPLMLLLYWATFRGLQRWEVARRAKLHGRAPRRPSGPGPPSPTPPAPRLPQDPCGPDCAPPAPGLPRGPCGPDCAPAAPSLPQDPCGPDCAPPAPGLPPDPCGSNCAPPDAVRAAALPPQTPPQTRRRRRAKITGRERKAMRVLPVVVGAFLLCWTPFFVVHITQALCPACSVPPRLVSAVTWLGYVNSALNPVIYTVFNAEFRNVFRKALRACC
- test-description: NIMH PDSP radioligand binding, membranes
- conditions-used: read-out: Ki
- Procedure: Radioligand binding assays with membrane preparations to determine binding affinity were carried out as outlined before[540] and by the National Institute of Mental Health’s Psychoactive Drug Screening Program (NIMH PDSP) (https://pdsp.unc.edu/), Contract # HHSN-271–2013–00017-C. The NIMH PDSP is Directed by B.L.R. at the University of North Carolina at Chapel Hill, Chapel Hill, NC, and Project Officer Jamie Driscoll at NIMH, Bethesda, MD.
measurement-name: Ki (µM)

1. c1ccc2c(c1)N=C(N1CCNCC1)c1ccccc1N2 :: 2.05
